- Test system: Escherichia coli TOP10
- Assay name: shrunken log2 fold change of peptide-encoding DNA abundance (4.5 h post-induction vs induction); higher = less antimicrobial activity (less host growth inhibition)
- Test context: time post-induction: 4.5 h; library: site-saturation at positions 5, 18, 19, 20
Each entry falls into one class according to its shrunken log2 fold change; the ranges are bin 1: < -0.05; bin 2: ≥ -0.05 and < 0.2; bin 3: ≥ 0.2

Sample answers from the record:
chain_sequence=RRIRQRPPRLPRPRPRPWGNPRP measured_on="Escherichia coli TOP10" assigned_class="bin 2"
chain_sequence=RRIRIRPPRLPRPRPRPREDPRP measured_on="Escherichia coli TOP10" assigned_class="bin 2"
chain_sequence=RRIRARPPRLPRPRPRPKCMPRP measured_on="Escherichia coli TOP10" assigned_class="bin 2"
chain_sequence=RRIRMRPPRLPRPRPRPAIGPRP measured_on="Escherichia coli TOP10" assigned_class="bin 2"
chain_sequence=RRIRDRPPRLPRPRPRPWLGPRP measured_on="Escherichia coli TOP10" assigned_class="bin 2"

**Q:** Could you place RRIRCRPPRLPRPRPRPPLPPRP in its proper category? Many thanks.
**A:** bin 3

---

- System: Escherichia coli TOP10
- Assay name: shrunken log2 fold change of peptide-encoding DNA abundance (4.5 h post-induction vs induction); higher = less antimicrobial activity (less host growth inhibition)
- Test context: time post-induction: 4.5 h; library: site-saturation at positions 5, 18, 19, 20
Quantity measured: shrunken log2 fold change
// no unit, no text: just the number

Here is how some sequences turned out for shrunken log2 fold change.
chain_sequence=RRIRLRPPRLPRPRPRPKLHPRP measured_on="Escherichia coli TOP10" readout_value=0.108
chain_sequence=RRIRERPPRLPRPRPRPFYWPRP measured_on="Escherichia coli TOP10" readout_value=-0.158
chain_sequence=RRIRRRPPRLPRPRPRPRWYPRP measured_on="Escherichia coli TOP10" readout_value=0.092

**Q:** Which measured shrunken log2 fold change value corresponds to RRIRCRPPRLPRPRPRPFYGPRP ?
**A:** -0.262

**Q:** Please answer likewise for RRIRQRPPRLPRPRPRPLWFPRP
**A:** -0.0512

**Q:** One more sequence: RRIRGRPPRLPRPRPRPPPLPRP
**A:** 1.16

---

- Tested on: Escherichia coli TOP10
- Assay name: shrunken log2 fold change of peptide-encoding DNA abundance (4.5 h post-induction vs induction); higher = less antimicrobial activity (less host growth inhibition)
- Test context: time post-induction: 4.5 h; library: site-saturation at positions 5, 18, 19, 20
Quantity measured: shrunken log2 fold change
Enter the number alone.

Recorded shrunken log2 fold change, per entry:
chain_sequence=RRIRTRPPRLPRPRPRPFWTPRP measured_on="Escherichia coli TOP10" readout_value=-0.258
chain_sequence=RRIRCRPPRLPRPRPRPECWPRP measured_on="Escherichia coli TOP10" readout_value=0.669
chain_sequence=RRIRFRPPRLPRPRPRPRMDPRP measured_on="Escherichia coli TOP10" readout_value=-0.0641
chain_sequence=RRIRKRPPRLPRPRPRPACYPRP measured_on="Escherichia coli TOP10" readout_value=0.13
chain_sequence=RRIRARPPRLPRPRPRPHHAPRP measured_on="Escherichia coli TOP10" readout_value=0.0775
chain_sequence=RRIRSRPPRLPRPRPRPQWDPRP measured_on="Escherichia coli TOP10" readout_value=-0.235

**Q:** shrunken log2 fold change for RRIRRRPPRLPRPRPRPVAGPRP ?
**A:** 0.453

**Q:** And for RRIRNRPPRLPRPRPRPLLYPRP ?
**A:** -0.588

**Q:** Next: RRIRQRPPRLPRPRPRPLTGPRP
**A:** -0.0104

**Q:** For RRIRRRPPRLPRPRPRPHIIPRP then?
**A:** -0.259

**Q:** Also need RRIRARPPRLPRPRPRPDEFPRP , thanks.
**A:** 0.331

**Q:** Similarly, RRIRMRPPRLPRPRPRPGTRPRP ?
**A:** 0.675

**Q:** Check RRIRDRPPRLPRPRPRPVHHPRP too.
**A:** 0.0594

---

As shown below, each of these sequences has a reported shrunken log2 fold change value.
- Test system: Escherichia coli TOP10
- Assay name: shrunken log2 fold change of peptide-encoding DNA abundance (4.5 h post-induction vs induction); higher = less antimicrobial activity (less host growth inhibition)
- Test context: time post-induction: 4.5 h; library: site-saturation at positions 5, 18, 19, 20
Form: value (number only, do not type unit).

The examples below pair each entry with its known result.
chain_sequence=RRIRDRPPRLPRPRPRPDHEPRP readout_value=-0.148
chain_sequence=RRIRTRPPRLPRPRPRPDYSPRP readout_value=-0.0445
chain_sequence=RRIRWRPPRLPRPRPRPYYIPRP readout_value=-0.459

**Q:** Entry RRIRRRPPRLPRPRPRPTGAPRP has what shrunken log2 fold change?
**A:** 0.633

**Q:** Cool, now RRIRSRPPRLPRPRPRPDMQPRP
**A:** -0.00211

**Q:** Same question for RRIRPRPPRLPRPRPRPTVNPRP please.
**A:** -0.157

**Q:** Cool, now RRIRKRPPRLPRPRPRPPAEPRP
**A:** 1.07

---

- Tested on: Escherichia coli TOP10
- Assay name: shrunken log2 fold change of peptide-encoding DNA abundance (4.5 h post-induction vs induction); higher = less antimicrobial activity (less host growth inhibition)
- Test context: time post-induction: 4.5 h; library: site-saturation at positions 5, 18, 19, 20
Ranges used to classify shrunken log2 fold change: group A (below -0.2), group B (-0.2 to below 0.2), group C (0.2 or more)

Reference set, count: 3
chain_sequence=RRIRHRPPRLPRPRPRPIMPPRP assigned_class="group A"
chain_sequence=RRIRDRPPRLPRPRPRPMYEPRP assigned_class="group B"
chain_sequence=RRIRNRPPRLPRPRPRPAHYPRP assigned_class="group A"

Moving on to another sequence below.
**Q:** Category of RRIRLRPPRLPRPRPRPHPRPRP , please.
**A:** group C

---

- System: Escherichia coli TOP10
- Assay name: shrunken log2 fold change of peptide-encoding DNA abundance (4.5 h post-induction vs induction); higher = less antimicrobial activity (less host growth inhibition)
- Test context: time post-induction: 4.5 h; library: site-saturation at positions 5, 18, 19, 20
Measured shrunken log2 fold change, listed per entry.
Lab note: write the figure by itself, no unit.

// worked examples, shrunken log2 fold change included
chain_sequence=RRIRARPPRLPRPRPRPATTPRP quantity_measured="shrunken log2 fold change" readout_value=0.681
chain_sequence=RRIRCRPPRLPRPRPRPLGRPRP quantity_measured="shrunken log2 fold change" readout_value=-0.151

Consider the additional sequence presented here.
**Q:** Look at this sequence and give its reported shrunken log2 fold change. RRIRDRPPRLPRPRPRPRYIPRP
**A:** -0.356

---

- System: Escherichia coli TOP10
- Assay name: shrunken log2 fold change of peptide-encoding DNA abundance (4.5 h post-induction vs induction); higher = less antimicrobial activity (less host growth inhibition)
- Test context: time post-induction: 4.5 h; library: site-saturation at positions 5, 18, 19, 20
Measured shrunken log2 fold change by item
Format: numeric value only, no unit, no commentary.

**Q:** Consider the sequence RRIRGRPPRLPRPRPRPFKGPRP and give its measured shrunken log2 fold change.
**A:** -0.00192

**Q:** Here is the next sequence: RRIRWRPPRLPRPRPRPVPMPRP
**A:** 0.221

---

- System: Escherichia coli TOP10;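 further: peptides expressed intracellularly from a pBAD plasmid library in pooled LB shake-flask culture, induced with 0.3% L-arabinose, DNA abundance read by NGS, three biological replicates, DESeq2 with apeglm shrinkage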
- Assay name: shrunken log2 fold change of peptide-encoding DNA abundance (4.5 h post-induction vs induction); higher = less antimicrobial activity (less host growth inhibition)
- Test context: time post-induction: 4.5 h; library: site-saturation at positions 5, 18, 19, 20
Quantity measured: shrunken log2 fold change

Sample answers from the record:
chain_sequence=RRIRPRPPRLPRPRPRPYCAPRP measured_on="Escherichia coli TOP10" readout_value=-0.312
chain_sequence=RRIRYRPPRLPRPRPRPNTWPRP measured_on="Escherichia coli TOP10" readout_value=-0.204
chain_sequence=RRIRMRPPRLPRPRPRPEMNPRP measured_on="Escherichia coli TOP10" readout_value=3.59

**Q:** Any idea what its shrunken log2 fold change is? The sequence is RRIRRRPPRLPRPRPRPSTYPRP
**A:** -0.418

**Q:** # iterate: RRIRWRPPRLPRPRPRPNTSPRP
**A:** -0.336

**Q:** Let us now turn to RRIRMRPPRLPRPRPRPKINPRP
**A:** -0.194

**Q:** Try this sequence next: RRIRGRPPRLPRPRPRPMCMPRP
**A:** 0.509

**Q:** Please do the same for RRIRSRPPRLPRPRPRPIIPPRP as well.
**A:** -0.188

**Q:** Also check RRIRSRPPRLPRPRPRPECCPRP
**A:** 0.21

**Q:** Thanks! And RRIRWRPPRLPRPRPRPYTVPRP ?
**A:** -0.29

**Q:** Continue with RRIRHRPPRLPRPRPRPEVPPRP
**A:** -0.00339

**Q:** Another sequence: RRIRVRPPRLPRPRPRPICLPRP
**A:** 0.0369

**Q:** Next sequence: RRIRSRPPRLPRPRPRPKPRPRP
**A:** 0.594

**Q:** Quick one: RRIRYRPPRLPRPRPRPYTKPRP
**A:** -0.351
